biological target: Streptavidin (Streptomyces avidinii); test: streptavidin binders on small-molecule microarray, primary screen, artefact control for SMM compound annotation, biophysical, 635/667 nm fluorescence (AID 1147); conditions: streptavidin binding, higher = more signal;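 note: signal reflects streptavidin binding to arrayed compounds as a control protein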
composite z-score by entry:
A bare number is all that is needed in reply.

Would you please look over these solved cases?
INSERT INTO results (compound, observed) VALUES
  ('O=C1C[C@@](C(=O)NC2CC2)(c2ccc([N+](=O)[O-])cc2)[C@@H](c2ccc(CO)cc2I)N1CC12CC3CC(CC(C3)C1)C2', 0.376),
  ('Cc1cc(C)c(C(O)C2C=CC3C(=O)N(C)C(=O)C3N2N2CCCCC2)c(C)c1 (stereo unspecified)', 1.4),
  ('O=C1c2ccccc2[C@@]2(Cc3ccccc3N(CC(F)(F)F)C2=O)[C@H](c2ccc(CO)cc2)N1C1CCCCC1', -0.256),
  ('C[C@H]1NC(=O)[C@@H](C)NC(=O)[C@@]23C(=O)N[C@@H](Cc4ccccc4)C2[C@H](C)[C@@]2(C)O[C@H]2C3/C=C/C/C=C\CNC1=O (stereo partly specified)', -0.594),
  ('COc1cccc([C@@H]2[C@@H](C)CC[C@H]3C(=O)N(C)[C@@H](C(C)C)C(=O)N23)c1', 0.398);

Exercise: So what's the measured composite z-score for this one? COC(=O)C1=C(C)N(Cc2ccccc2)c2c(C(=O)OC)c(C(=O)OC)c(C(=O)OC)c(=O)n2[C@@H]1c1ccccc1
Solution: 0.125

Exercise: So what's the measured composite z-score for this one? CO[C@H]1COC(=O)[C@@H](OCc2ccccc2)C=C[C@H](C)[C@@H](OC)COC(=O)[C@H](OCc2ccccc2)C=C[C@@H]1C
Solution: -0.0864

Exercise: So what's the measured composite z-score for this one? CCCC=C(CCC)[C@@H](NC(=O)c1ccccc1)c1ccccc1
Solution: 0.405

Exercise: So what's the measured composite z-score for this one? CO[C@]12C=C(Br)[C@@H](C[C@@H]1c1ccccc1)[C@@]1(CO1)C2=O
Solution: 0.4

Exercise: So what's the measured composite z-score for this one? COc1ccc([Si](C)(C)[C@@H]2[C@@H](CC(=O)N(CCO)Cc3ccccc3)O[C@]3(C(=O)N(Cc4cccc(N5CCC5=O)c4)c4ccccc43)[C@H]2C)cc1
Solution: -0.287

Exercise: So what's the measured composite z-score for this one? C=CC[C@@]1(C(=O)N2CCOCC2)N=C(c2ccc(OCCCO)cc2)O[C@@H]1c1ccccc1
Solution: -0.0392

* * *

test: P. aeruginosa biofilm formation inhibitors, primary screen, PAO1 strain, BacTiter-Glo luminescence, LB-PBS (AID 1144); settings: 12 h, higher = more signal
MEASUREMENT_LABEL: z-score
A bare number is all that is needed in reply.

INSERT INTO assay_data (compound, observed) VALUES
  ('C=CCC(OC(C)=O)[C@@H]1[C@@H](N(Cc2cccc3ccccc23)C(=O)c2ccc(C)cc2)c2cc(OCCCO)ccc2N1C(=O)c1ccc(-c2ccccc2)cc1 (some centres not stated)', 0.528);

Exercise: So what's the measured z-score for this one? CC[C@@H]1C=C(C(=O)O)[C@H](c2ccccc2)N1S(=O)(=O)c1ccc([N+](=O)[O-])cc1
Solution: -0.667

Exercise: So what's the measured z-score for this one? C=C(COC)C(=O)CC[C@H](OC(=O)c1ccccc1-c1ccccc1C(=O)O)c1cccc(OCCO)c1
Solution: -0.805

Exercise: So what's the measured z-score for this one? CCC1=C2CN(Cc3ccccc3Br)[C@@H]([C@@H](O)Cc3ccccc3)C2C=CCC1 (some centres not stated)
Solution: -0.709

Exercise: So what's the measured z-score for this one? Cc1ccc(S[C@]2(C(=O)NC(C)C)CC(=O)N(Cc3cc(C(F)(F)F)cc(C(F)(F)F)c3)[C@@H]2c2ccc(CO)cc2I)cc1
Solution: 0.381

Exercise: So what's the measured z-score for this one? CCCN1C(=O)[C@@]2(CCS(=O)(=O)c3ccccc3)N=C(c3ccc(OCCCO)cc3)O[C@H]2c2ccccc21
Solution: -1.6

Exercise: So what's the measured z-score for this one? CC(=O)NCCCC[C@@H]1NC(=O)[C@H]2C[C@@H](C(=O)NCCCCCCN(C)C)[C@@H](c3cccc(OCCO)c3)N2C1=O
Solution: -0.542

* * *

system: XIP peptide (Xip251-270) binding; assay: small-molecule binders of XIP peptide, primary screen, biochemical, small-molecule microarray, fluorescence 635/667 nm, 0.1 µg/mL protein (AID 1182); conditions: fluorescent protein binding, 635 nm, higher = more signal, called active from +8 up or from −8 down
MEASUREMENT_LABEL: composite z-score
A bare number is all that is needed in reply.

Exercise: So what's the measured composite z-score for this one? C[N+](C)(C)CCCCNC(=O)[C@@H]1C[C@@H]2C(=O)N3CCC[C@H]3C(=O)N2[C@@H]1c1cccc(OCCO)c1
Solution: 3.4

Exercise: So what's the measured composite z-score for this one? COCCOC(=O)N1C(=O)[C@@]2(c3cc(C#CCCO)ccc31)[C@H](C(=O)N1CCCCCCC1)[C@H]1C(=O)O[C@H](c3ccccc3)[C@H](c3ccccc3)N1[C@@H]2c1ccc(O)cc1
Solution: 1.48

Exercise: So what's the measured composite z-score for this one? O=C1c2ccccc2[C@@]2(Cc3ccccc3N(CC(F)(F)F)C2=O)[C@H](c2ccc(CO)cc2)N1C1CCCCC1
Solution: 0.586

Exercise: So what's the measured composite z-score for this one? COc1ccc(C(O)C2C=CC3C(=O)N(C)C(=O)C3N2N2CCCCC2)cc1OCc1ccccc1 (configuration not stated)
Solution: -0.001

Exercise: So what's the measured composite z-score for this one? CC(C)(C)OC(=O)CC[C@]1(C(=O)N2CCCCC2)N=C(c2ccc(OCCCO)cc2)O[C@H]1c1ccccc1
Solution: 1.24

Exercise: So what's the measured composite z-score for this one? O=C1O[C@H](c2ccccc2)[C@H](c2ccccc2)N2[C@H]1[C@@H](C(=O)Nc1nc3ccccc3s1)[C@]1(C(=O)Nc3ccc(C#CC4=CCCCC4)cc31)[C@H]2c1ccccc1OCCO
Solution: 0.0485

Exercise: So what's the measured composite z-score for this one? C[C@@H]1NC(=O)[C@H](Cc2ccccc2)NC(=O)[C@@]23C(=O)N[C@@H](Cc4ccccc4)C2[C@H](C)[C@@]2(C)O[C@H]2C3/C=C/C/C=C\CNC1=O (some centres not stated)
Solution: -0.138

* * *

test: small-molecule microarray binders of probe aEGFR, primary screen, biochemical, biotinylated probe, 635/667 nm fluorescence (AID 1097); details: higher = more signal;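 note: probe is a biotinylated anti-EGFR antibody binding compounds printed on slides; score combines fluorescence near 667 nm and signal to noise of each spot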
composite z-score by entry:
A bare number is all that is needed in reply.

INSERT INTO assay_data (compound, observed) VALUES
  ('CO[C@H]1COC(=O)CC=C[C@@H](C)COC(=O)[C@@H](C)NC(=O)CC=C[C@@H]1C', -0.0243),
  ('C=CCC(OC(C)=O)[C@@H]1[C@@H](N(Cc2ccc(-c3ccccc3)cc2)C(=O)c2ccc(C)cc2)c2cc(OCCCO)ccc2N1C(=O)c1ccc(-c2ccccc2)cc1 (some centres not stated)', 0.039),
  ('O=C1OCC=C[C@H]2OC34C=CCN(Cc5ccccc5)C(=O)[C@H]3N(CCCCCO)C(=O)[C@@H]4[C@@H]12 (some centres not stated)', -0.358),
  ('CCCNC(=O)[C@@]1(Sc2ccc(C)cc2)CC(=O)N(Cc2ccccc2Cl)[C@@H]1c1ccc(CO)cc1', -0.0082),
  ('C=CC[C@]1(C(=O)O)N=C(c2ccc(OCCCO)cc2)O[C@H]1c1ccccc1N=[N+]=[N-]', -0.0059),
  ('C=C(CCCC)/C(=C/C[C@H](OC(=O)c1ccncc1)c1cccc(OCCO)c1)c1cc(C(=O)OC)ccc1OC', -0.112);

Could you now consider this next compound?
Exercise: So what's the measured composite z-score for this one? COc1ccc(CCNC(=O)[C@@]2(c3ccc([N+](=O)[O-])cc3)CC(=O)N(C(C)C)[C@@H]2c2ccc(CO)cc2)cc1
Solution: -0.318

* * *

composite z-score by entry:
experiment: binders from COS7 lysate, DM2A8 probe, primary screen, torsin A project, cell lysate, small-molecule microarray, fluorescence 635/667 (AID 1065); details: higher = more signal, COS7 lysate expressing mutant human TOR1A
A bare number is all that is needed in reply.

Would you please look over these solved cases?
INSERT INTO results (compound_string, measurement_label, observed) VALUES
  ('CO[C@H]1COC(=O)CC=C[C@H](C)COC(=O)[C@@H](OCc2ccccc2)C=C[C@@H]1C', 'composite z-score', 2.14),
  ('C[C@@H]1CC[C@H]2C(=O)N3[C@@H](CC[C@@H](C)[C@@H]3c3cccc(N4CCOCC4)c3)C(=O)N2[C@H]1c1cccc(N2CCOCC2)c1', 'composite z-score', 0.378),
  ('Cc1ccc(S(=O)(=O)c2cc3oc2CC[C@@H](CO)NC(=O)N(C)Cc2cn(nn2)C[C@H](Cc2ccccc2)NC3=O)cc1', 'composite z-score', 0.345),
  ('COCCOC(=O)N1C(=O)[C@@]2(c3ccccc31)[C@H](C(=O)N1CCc3cc(OC)c(OC)cc3C1)[C@H]1C(=O)O[C@H](c3ccccc3)[C@H](c3ccccc3)N1[C@@H]2c1ccccc1OCCO', 'composite z-score', 0.409),
  ('CO[C@H]1COC(=O)[C@H](CCSC)NC(=O)CC=C[C@@H](C)COC(=O)[C@@H](OCc2ccccc2)C=C[C@@H]1C', 'composite z-score', 2.45);

Could you now consider this next compound?
Exercise: So what's the measured composite z-score for this one? COCCOC(=O)N1C(=O)[C@@]2(c3cc(C#CCNC(N)=O)ccc31)[C@H](C(=O)N1CCCCCCC1)[C@H]1C(=O)O[C@H](c3ccccc3)[C@H](c3ccccc3)N1[C@@H]2c1ccccc1OCCO
Solution: 0.288

Where do the numbers come from? From PubChem BioAssay.
